- targetOfAssay: Protein cereblon/CREB-binding protein (Homo sapiens) (UniProt Q92793+Q96SW2)
- Sequence (Q92793 2-2442 limits assumed): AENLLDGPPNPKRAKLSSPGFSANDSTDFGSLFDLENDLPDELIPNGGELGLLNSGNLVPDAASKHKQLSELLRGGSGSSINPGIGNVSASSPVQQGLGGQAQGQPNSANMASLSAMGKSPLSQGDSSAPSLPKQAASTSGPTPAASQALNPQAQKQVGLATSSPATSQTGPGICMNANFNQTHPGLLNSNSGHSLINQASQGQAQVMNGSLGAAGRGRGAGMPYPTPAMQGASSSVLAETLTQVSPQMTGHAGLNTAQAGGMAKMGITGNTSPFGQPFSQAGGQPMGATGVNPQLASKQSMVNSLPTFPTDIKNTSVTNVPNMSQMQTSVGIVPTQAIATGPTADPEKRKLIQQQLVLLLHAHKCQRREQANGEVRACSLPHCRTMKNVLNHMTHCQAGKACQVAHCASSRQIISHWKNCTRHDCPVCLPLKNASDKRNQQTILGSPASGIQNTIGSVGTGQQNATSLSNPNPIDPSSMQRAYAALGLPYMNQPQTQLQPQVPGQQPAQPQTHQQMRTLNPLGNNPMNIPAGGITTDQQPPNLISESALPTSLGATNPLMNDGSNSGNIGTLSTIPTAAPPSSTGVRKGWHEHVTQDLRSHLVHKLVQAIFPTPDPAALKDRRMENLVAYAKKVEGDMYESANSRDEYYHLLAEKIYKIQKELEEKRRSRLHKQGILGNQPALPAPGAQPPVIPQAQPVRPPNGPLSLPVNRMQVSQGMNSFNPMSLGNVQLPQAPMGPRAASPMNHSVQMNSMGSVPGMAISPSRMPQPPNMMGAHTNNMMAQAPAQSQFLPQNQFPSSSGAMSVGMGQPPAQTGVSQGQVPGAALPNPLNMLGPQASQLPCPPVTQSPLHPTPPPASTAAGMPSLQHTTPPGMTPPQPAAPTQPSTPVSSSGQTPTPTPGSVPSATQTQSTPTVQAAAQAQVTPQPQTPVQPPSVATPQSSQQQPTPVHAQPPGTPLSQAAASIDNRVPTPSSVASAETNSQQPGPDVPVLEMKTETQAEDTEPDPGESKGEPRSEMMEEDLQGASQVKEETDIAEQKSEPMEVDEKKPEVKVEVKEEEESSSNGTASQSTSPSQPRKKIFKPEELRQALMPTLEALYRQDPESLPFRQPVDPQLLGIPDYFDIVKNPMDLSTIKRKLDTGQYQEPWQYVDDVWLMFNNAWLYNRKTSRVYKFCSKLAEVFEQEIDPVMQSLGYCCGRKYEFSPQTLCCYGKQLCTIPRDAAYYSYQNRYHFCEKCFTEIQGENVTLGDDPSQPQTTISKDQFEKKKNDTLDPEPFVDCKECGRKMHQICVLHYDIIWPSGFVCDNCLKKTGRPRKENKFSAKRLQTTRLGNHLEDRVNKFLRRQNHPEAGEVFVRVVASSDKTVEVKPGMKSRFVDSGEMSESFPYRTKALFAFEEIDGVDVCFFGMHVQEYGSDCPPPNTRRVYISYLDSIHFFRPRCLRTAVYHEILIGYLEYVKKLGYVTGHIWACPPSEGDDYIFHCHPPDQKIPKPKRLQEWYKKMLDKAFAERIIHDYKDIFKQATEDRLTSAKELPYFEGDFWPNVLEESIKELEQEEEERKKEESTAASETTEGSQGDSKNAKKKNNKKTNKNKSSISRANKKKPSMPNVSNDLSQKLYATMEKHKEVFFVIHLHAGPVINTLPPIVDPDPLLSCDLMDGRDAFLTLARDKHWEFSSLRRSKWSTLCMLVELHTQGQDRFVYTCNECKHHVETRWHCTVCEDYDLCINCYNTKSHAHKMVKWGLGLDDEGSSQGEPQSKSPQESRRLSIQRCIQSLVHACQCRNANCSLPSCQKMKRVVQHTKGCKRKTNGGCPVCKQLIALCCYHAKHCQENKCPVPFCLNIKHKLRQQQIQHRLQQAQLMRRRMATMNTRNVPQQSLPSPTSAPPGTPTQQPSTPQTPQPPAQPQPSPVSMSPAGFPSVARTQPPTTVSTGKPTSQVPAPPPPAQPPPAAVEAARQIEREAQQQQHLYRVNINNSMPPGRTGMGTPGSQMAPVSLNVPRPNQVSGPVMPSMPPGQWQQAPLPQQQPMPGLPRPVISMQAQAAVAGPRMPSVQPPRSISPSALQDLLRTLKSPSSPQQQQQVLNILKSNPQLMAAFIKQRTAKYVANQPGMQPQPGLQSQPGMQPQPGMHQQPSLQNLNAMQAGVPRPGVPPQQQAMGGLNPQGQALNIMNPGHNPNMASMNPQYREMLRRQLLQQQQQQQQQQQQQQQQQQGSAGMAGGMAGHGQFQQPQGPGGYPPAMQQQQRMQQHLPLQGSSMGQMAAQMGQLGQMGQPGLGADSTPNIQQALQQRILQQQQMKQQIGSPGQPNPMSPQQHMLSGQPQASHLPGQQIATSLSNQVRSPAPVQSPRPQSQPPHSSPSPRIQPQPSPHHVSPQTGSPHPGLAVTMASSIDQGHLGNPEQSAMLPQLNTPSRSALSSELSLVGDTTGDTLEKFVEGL
- Sequence (Q96SW2 whole entry partner): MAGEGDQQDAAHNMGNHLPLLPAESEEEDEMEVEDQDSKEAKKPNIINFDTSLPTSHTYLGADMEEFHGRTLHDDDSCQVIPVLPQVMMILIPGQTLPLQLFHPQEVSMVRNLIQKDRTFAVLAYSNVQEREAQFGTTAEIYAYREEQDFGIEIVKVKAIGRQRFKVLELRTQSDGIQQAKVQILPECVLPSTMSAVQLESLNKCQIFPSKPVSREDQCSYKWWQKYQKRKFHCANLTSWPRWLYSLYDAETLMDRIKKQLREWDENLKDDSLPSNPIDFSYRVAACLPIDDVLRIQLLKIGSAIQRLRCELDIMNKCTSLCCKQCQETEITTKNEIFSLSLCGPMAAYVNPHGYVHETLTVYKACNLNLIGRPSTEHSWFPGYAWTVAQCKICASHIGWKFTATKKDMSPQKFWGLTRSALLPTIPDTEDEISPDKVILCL
- assayOverview: PROTAC activity at CRBN/HiBiT-tagged CBP in human HAP1 cells assessed as induction of CBP degradation by measuring maximal efficacy at 1000 nM measured over 24 hrs by luminescence based analysis relative to control
- Format: cell-based
readoutLabel: Emax (%)
Kindly answer with a numeric value in %, unit omitted.

Memo: CNC(=O)N1CCc2c(c(N3CCN(C(=O)NCCOCCNc4ccc5c(c4)C(=O)N(C4CCC(=O)NC4=O)C5=O)c4cc(-c5cnn(C)c5)c(C(F)(F)F)cc43)nn2C2CCOCC2)C1 (configuration not stated) , reported Emax: 26

compound CNC(=O)N1CCc2c(c(N3CCCc4cc(-c5cnn(C)c5)c(C(F)F)cc43)nn2C2CCN(C(=O)CCOCCOCCOCCOCCOCCOCCNc3ccc4c(c3)C(=O)N(C3CCC(=O)NC3=O)C4=O)CC2)C1 (configuration not stated) , Emax observed: 81

Reported Emax for CNC(=O)N1CCc2c(c(N3CCCc4cc(-c5cnn(C)c5)c(C(F)F)cc43)nn2C2CCN(C(=O)CCOCCOCCOCCOCCNc3ccc4c(c3)C(=O)N(C3CCC(=O)NC3=O)C4=O)CC2)C1 (configuration not stated) was 83

CNC(=O)N1CCc2c(c(N3CCCc4cc(-c5cnn(C)c5)c(C(F)(F)F)cc43)nn2C2CCN(C(=O)CCOCCOCCOCCOCCNc3ccc4c(c3)C(=O)N(C3CCC(=O)NC3=O)C4=O)CC2)C1 (configuration not stated) yielded Emax of 80

Item: CNC(=O)N1CCc2c(c(N3CCCc4cc(-c5cnn(CC(=O)NCCOCCNc6ccc7c(c6)C(=O)N(C6CCC(=O)NC6=O)C7=O)c5)c(C(F)F)cc43)nn2C2CCOCC2)C1 (configuration not stated) | Emax: 59

Emax in this record for CNC(=O)N1CCc2c(c(N3CCCc4cc(-c5cnn(CC(=O)NCCOCCOCCOCCOCCNc6ccc7c(c6)C(=O)N(C6CCC(=O)NC6=O)C7=O)c5)c(C(F)F)cc43)nn2C2CCOCC2)C1 (configuration not stated) : 42

Short answer for CNC(=O)N1CCc2c(c(N3CCCc4cc(-c5cnn(C)c5)c(C(F)F)cc43)nn2C2CCN(C(=O)CCOCCNc3ccc4c(c3)C(=O)N(C3CCC(=O)NC3=O)C4=O)CC2)C1 (configuration not stated) : Emax was 64

* * *

- targetOfAssay: Protein cereblon/Histone acetyltransferase p300 (Homo sapiens) (UniProt Q09472+Q96SW2)
- assayOverview: Binding affinity to recombinant CRBN/p300 bromodomain (unknown origin) assessed as ternary complex formation at 10 to 100 nM by Alphascreen-based proximity assay
- Assay type: protein assay
- studyConditions: dose 10-100 nM
The source made the active and inactive calls. No cut-off for these calls is given here.
readoutLabel: Activity

CNC(=O)N1CCc2c(c(N3CCCc4cc(-c5cnn(CC(=O)NCCOCCOCCOCCOCCNc6ccc7c(c6)C(=O)N(C6CCC(=O)NC6=O)C7=O)c5)c(C(F)F)cc43)nn2C2CCOCC2)C1 (stereo not drawn): Active
CNC(=O)N1CCc2c(c(N3CCN(C(=O)NCCOCCOCCOCCOCCOCCOCCNc4ccc5c(c4)C(=O)N(C4CCC(=O)NC4=O)C5=O)c4cc(-c5cnn(C)c5)c(C(F)(F)F)cc43)nn2C2CCOCC2)C1 (stereo not drawn): Active
CNC(=O)N1CCc2c(c(N3CCCc4cc(-c5cnn(C)c5)c(C(F)F)cc43)nn2C2CCN(C(=O)CCOCCOCCOCCOCCOCCOCCNc3ccc4c(c3)C(=O)N(C3CCC(=O)NC3=O)C4=O)CC2)C1 (stereo not drawn): Active
